protocol_text: Cytotoxicity (CC50), MTS assay
setup_conditions: human
reported_endpoint: CC50 at 48 h

IN: What CC50 at 48 h value was documented for this compound, O=c1cc(-c2ccccc2)oc2c(Br)c(O)c(O)c(O)c12 ?
OUT: > 100 µM

* * *

Test system: DENV4 (1036)
protocol_text: Antiviral efficacy (EC50), plaque titration
Format: cell-based
setup_conditions: LLC-MK2, 72 h
reported_endpoint: pEC50
Friendly reminder that pEC50 comes from taking -log10 of the concentration in mol/L.

IN: Field request: pEC50 | item: O=c1cc(-c2ccccc2)oc2c(Br)c(O)c(O)c(O)c12 [8-bromobaicalein]
OUT: 6.10

IN: Need pEC50 of O=c1cc(-c2ccccc2)oc2cc(O)c(O)c(O)c12 [baicalein, 5,6,7-trihydroxyflavone] , thanks.
OUT: 6.03

* * *

Test system: DENV1-4, and ZIKV
protocol_text: Antiviral efficacy, summary over dengue serotypes and Zika
Assay type: cell-based
setup_conditions: Zika virus, DENV1, read-out: EC50s against DENV1-4 and ZIKV
reported_endpoint: EC50

IN: Fill in the blank: the reported EC50 of O=c1cc(-c2ccccc2)oc2c(Br)c(O)c(O)c(O)c12 is ____.
OUT: 660 to 880 nM

* * *

protocol_text: Cytotoxicity (CC50), MTS assay
setup_conditions: human
reported_endpoint: CC50 at 48 h (µM)
Write the answer as a number in µM, unit excluded.

IN: Give the measured CC50 at 48 h of O=c1cc(-c2ccccc2)oc2c(Br)c(O)c(O)c(O)c12 [8-bromobaicalein] .
OUT: 97.9

* * *

protocol_text: Cytotoxicity (CC50), MTS assay
setup_conditions: human
reported_endpoint: CC50 at 48 h

IN: Sample O=c1cc(-c2ccccc2)oc2c(Br)c(O)c(O)c(O)c12 — what was its CC50 at 48 h?
OUT: > 100 µM
